Where do these numbers come from? They come from patent EP4703363A1.

assay-summary: In vivo pharmacokinetics in SD rats
condition-info: male, rat, plasma, oral, i.g 12 mg/kg
measured-attribute: half-life (h)
Entry rule: numbers only, all in h.

half-life recorded for this compound, CCNC(=O)Nc1ccc(-c2sc3c(c2CN(C)C)c(=O)n(-c2ccc(OC)nn2)c(=O)n3Cc2c(F)cccc2F)cn1 [Formula I] , is 4.31

---

target-of-assay: human GnRHR (Homo sapiens, UniProt P30968)
Sequence (P30968 whole entry): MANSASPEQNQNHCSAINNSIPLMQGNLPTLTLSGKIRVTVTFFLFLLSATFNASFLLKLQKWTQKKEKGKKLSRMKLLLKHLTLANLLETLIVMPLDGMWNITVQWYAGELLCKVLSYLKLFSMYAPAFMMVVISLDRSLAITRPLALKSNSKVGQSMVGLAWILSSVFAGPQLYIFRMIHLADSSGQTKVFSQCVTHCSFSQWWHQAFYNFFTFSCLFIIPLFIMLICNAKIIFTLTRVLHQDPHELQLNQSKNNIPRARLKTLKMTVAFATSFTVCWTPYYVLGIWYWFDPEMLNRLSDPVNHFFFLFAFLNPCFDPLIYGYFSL
assay-summary: In vitro antagonistic activity screening (FLIPR fluorescence, Leuprolide acetate stimulation)
Format: cell-based
condition-info: HEK293 cells stably expressing human GnRHR; read-out: Functional IC50
measured-attribute: pIC50
The value called pIC50 is obtained by taking minus log10 of the concentration in mol/L.

So the reported pIC50 for CCNC(=O)Nc1ccc(-c2sc3c(c2CN(C)C)c(=O)n(-c2ccc(OC)nn2)c(=O)n3Cc2c(F)cccc2F)cn1 , on human GnRHR (Homo sapiens, UniProt P30968), turned out to be 9.00

---

Entries and their Cmax values follow.
assay-summary: In vivo pharmacokinetics in SD rats
condition-info: male, rat, plasma, oral, i.g 12 mg/kg
Entry rule: numbers only, all in ng/mL.

CCNC(=O)Nc1ccc(-c2sc3c(c2CN(C)C)c(=O)n(-c2ccc(OC)nn2)c(=O)n3Cc2c(F)cccc2F)cn1    78.5

Then there is this molecule:
Cmax recorded for this molecule, CONC(=O)Nc1ccc(-c2sc3c(c2CN(C)C)c(=O)n(-c2ccc(OC)nn2)c(=O)n3Cc2c(F)cccc2F)cc1 [Relugolix, reference compound] , is 21.6

---

assay-summary: Pituitary tissue distribution in SD rats
Assay type: in vivo
condition-info: male, rat, pituitary/plasma, oral, intragastric 12 mg/kg, 4 h
measured-attribute: Kp at 4 h
Returns: the value as a bare number; no unit string appended.

CONC(=O)Nc1ccc(-c2sc3c(c2CN(C)C)c(=O)n(-c2ccc(OC)nn2)c(=O)n3Cc2c(F)cccc2F)cc1 [Relugolix, reference compound]    76.3

Kp at 4 h recorded for this compound, CCNC(=O)Nc1ccc(-c2sc3c(c2CN(C)C)c(=O)n(-c2ccc(OC)nn2)c(=O)n3Cc2c(F)cccc2F)cn1 [Formula I] , is 80.8

---

target-of-assay: human GnRHR (Homo sapiens)
assay-summary: In vitro binding screening ([125I]-[D-Trp6]-LH-RH displacement, Chem-1 cell membrane)
Set-up: host or cells: Chem-1 cells (membrane preparation)
measured-attribute: IC50 (nM)
Entry rule: numbers only, all in nM.

IC50 recorded for this compound, CCNC(=O)Nc1ccc(-c2sc3c(c2CN(C)C)c(=O)n(-c2ccc(OC)nn2)c(=O)n3Cc2c(F)cccc2F)cn1 , is 0.64

---

assay-summary: Caco-2 monolayer two-way permeability and efflux
Type: in vitro ADME
condition-info: human; Caco-2, 120 min incubation, A to B
measured-attribute: Papp A→B at 120 min (×10⁻⁶ cm/s)
Entry rule: numbers only, all in ×10⁻⁶ cm/s.

Papp A→B at 120 min recorded for this molecule, CCNC(=O)Nc1ccc(-c2sc3c(c2CN(C)C)c(=O)n(-c2ccc(OC)nn2)c(=O)n3Cc2c(F)cccc2F)cn1 , is 0.0142

---

target-of-assay: human hERG potassium channel (Homo sapiens, UniProt Q12809)
Sequence (Q12809 whole entry): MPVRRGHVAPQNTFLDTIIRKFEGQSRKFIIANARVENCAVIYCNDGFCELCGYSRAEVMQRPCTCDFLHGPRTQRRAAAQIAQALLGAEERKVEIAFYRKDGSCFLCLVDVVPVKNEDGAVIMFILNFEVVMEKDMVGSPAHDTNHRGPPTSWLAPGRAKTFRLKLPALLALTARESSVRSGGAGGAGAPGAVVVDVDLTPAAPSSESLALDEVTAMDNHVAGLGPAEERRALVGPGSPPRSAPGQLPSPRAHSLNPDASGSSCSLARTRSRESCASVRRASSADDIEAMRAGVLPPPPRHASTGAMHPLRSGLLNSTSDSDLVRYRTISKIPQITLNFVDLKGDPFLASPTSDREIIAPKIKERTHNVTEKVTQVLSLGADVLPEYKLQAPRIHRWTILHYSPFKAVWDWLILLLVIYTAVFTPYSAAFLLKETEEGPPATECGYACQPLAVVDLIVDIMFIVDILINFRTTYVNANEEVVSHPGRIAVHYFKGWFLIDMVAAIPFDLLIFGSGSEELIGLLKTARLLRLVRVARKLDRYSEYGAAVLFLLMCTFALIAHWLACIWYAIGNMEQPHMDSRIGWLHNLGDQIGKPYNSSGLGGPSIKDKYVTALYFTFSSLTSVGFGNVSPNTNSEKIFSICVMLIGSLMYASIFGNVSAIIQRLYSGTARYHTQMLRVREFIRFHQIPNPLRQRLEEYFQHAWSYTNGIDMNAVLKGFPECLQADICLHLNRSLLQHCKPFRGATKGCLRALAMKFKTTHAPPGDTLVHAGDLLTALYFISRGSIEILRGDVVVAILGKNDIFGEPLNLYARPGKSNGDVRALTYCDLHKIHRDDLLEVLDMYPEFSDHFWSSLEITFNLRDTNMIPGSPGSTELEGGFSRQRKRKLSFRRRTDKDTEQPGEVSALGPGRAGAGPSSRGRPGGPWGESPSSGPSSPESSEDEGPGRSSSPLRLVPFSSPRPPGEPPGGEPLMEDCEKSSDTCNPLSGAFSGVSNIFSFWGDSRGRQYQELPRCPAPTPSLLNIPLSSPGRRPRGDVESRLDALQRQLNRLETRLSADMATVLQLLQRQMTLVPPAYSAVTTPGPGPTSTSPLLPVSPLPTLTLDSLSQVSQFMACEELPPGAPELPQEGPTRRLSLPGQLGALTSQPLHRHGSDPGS
assay-summary: hERG test (QPatch automated patch clamp, CHO cells)
condition-info: CHO cells stably expressing human hERG potassium channel
measured-attribute: pIC50
The value called pIC50 is obtained by taking minus log10 of the concentration in mol/L.

So the reported pIC50 for CCNC(=O)Nc1ccc(-c2sc3c(c2CN(C)C)c(=O)n(-c2ccc(OC)nn2)c(=O)n3Cc2c(F)cccc2F)cn1 , on human hERG potassium channel (Homo sapiens, UniProt Q12809), turned out to be 4.59

---

assay-summary: Caco-2 monolayer two-way permeability and efflux
Assay type: in vitro ADME
condition-info: human, Caco-2
measured-attribute: efflux ratio at 120 min

efflux ratio at 120 min recorded for this compound, CCNC(=O)Nc1ccc(-c2sc3c(c2CN(C)C)c(=O)n(-c2ccc(OC)nn2)c(=O)n3Cc2c(F)cccc2F)cn1 , is 294

---

assay-summary: Caco-2 monolayer two-way permeability and efflux
Assay type: in vitro ADME
condition-info: human; Caco-2, 120 min incubation, B to A
Experimental: Instruments: water purification instrument, ELGA LabWate; biosafety cabinet, NUAIRE; thermostatic CO2 incubator, Thermo; microplate reader, PerkinElmer; LC-MS/MS, AB SCIEX. Method: A Caco-2 monolayer cell model was used to determine the two-way permeability of the test substance and evaluate whether the test substance was transported via efflux by a transporter. […]
measured-attribute: Papp B→A at 120 min (×10⁻⁶ cm/s)
Entry rule: numbers only, all in ×10⁻⁶ cm/s.

Papp B→A at 120 min recorded for this compound, CCNC(=O)Nc1ccc(-c2sc3c(c2CN(C)C)c(=O)n(-c2ccc(OC)nn2)c(=O)n3Cc2c(F)cccc2F)cn1 , is 4.19

---

Entries and their C0 values follow.
assay-summary: In vivo pharmacokinetics in SD rats
condition-info: male, rat, plasma, intravenous, i.v 1 mg/kg
Entry rule: numbers only, all in ng/mL.

CCNC(=O)Nc1ccc(-c2sc3c(c2CN(C)C)c(=O)n(-c2ccc(OC)nn2)c(=O)n3Cc2c(F)cccc2F)cn1    68.8

Then there is this compound:
C0 recorded for this compound, CONC(=O)Nc1ccc(-c2sc3c(c2CN(C)C)c(=O)n(-c2ccc(OC)nn2)c(=O)n3Cc2c(F)cccc2F)cc1 [Relugolix, reference compound] , is 339

---

assay-summary: In vivo pharmacokinetics in SD rats
condition-info: male, rat, plasma, intravenous, i.v 1 mg/kg
measured-attribute: half-life (h)
Entry rule: numbers only, all in h.

half-life recorded for this compound, CCNC(=O)Nc1ccc(-c2sc3c(c2CN(C)C)c(=O)n(-c2ccc(OC)nn2)c(=O)n3Cc2c(F)cccc2F)cn1 [Formula I] , is 6.39

---

assay-summary: In vivo pharmacokinetics in SD rats
condition-info: male, rat, plasma, oral, i.g 12 mg/kg
measured-attribute: AUC(0-t) (ng·h/mL)
Entry rule: numbers only, all in ng·h/mL.

CONC(=O)Nc1ccc(-c2sc3c(c2CN(C)C)c(=O)n(-c2ccc(OC)nn2)c(=O)n3Cc2c(F)cccc2F)cc1 [Relugolix, reference compound]    146

Then there is this molecule:
AUC(0-t) recorded for this molecule, CCNC(=O)Nc1ccc(-c2sc3c(c2CN(C)C)c(=O)n(-c2ccc(OC)nn2)c(=O)n3Cc2c(F)cccc2F)cn1 , is 357
